experiment: NCI Yeast Anticancer Drug Screen. Data for the rad50 strain (AID 155);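 also: 0% = growth of vehicle-only cultures of the same strain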; conditions: S. cerevisiae rad50 strain growth inhibition; at 50.0 µM; active compounds read high
Compounds without any hit were thinned out: in the full panel of roughly 79,000, 15% have a hit.
Assay Readout: growth inhibition (%)
The reply should be a number in %, with the unit left off.

INSERT INTO assay_data (compound, assay_readout, units_of_measure, numeric_value) VALUES
  ('CC1(C#N)C(C#N)(C#N)C1(C#N)C#N', 'growth inhibition', '%', -0.05),
  ('O=C1/C(=C/c2ccccc2)SC(=S)N1C1OC(CO)C(O)C(O)C1O (stereo not drawn)', 'growth inhibition', '%', 3.45);

Tell me the measured growth inhibition of Cc1ccc(S(=O)(=O)/C=C\S(=O)(=O)c2ccc(C)cc2)cc1 , please. -7.35

Please give the result for N#CC(C(=O)C(=O)Nc1cccc(C(F)(F)F)c1)c1cccc(Cl)c1 (stereo not drawn) too. 19.1

Please give the result for COc1cc(NS(=O)(=O)c2ccc(C)cc2)c2c(c1N)C(=O)c1ccccc1C2=O too. -3.4

---

experiment: NCI Yeast Anticancer Drug Screen. Data for the mlh1 rad18 strain (AID 175); settings: S. cerevisiae mlh1 rad18 strain growth inhibition; at 50.0 µM; active compounds read high
This is part of a sample that, as a whole, favours compounds with a hit. Of some 79,000 tested, about 15% had one in any assay.
Entries and their growth inhibition values follow.
The reply should be a number in %, with the unit left off.

INSERT INTO assay_data (compound, numeric_value) VALUES
  ('N=c1ncn(C/C=C/c2ccccc2)c2nc[nH]c12', 5),
  ('COc1ccc(/C(=C/n2ccnc2)C(=O)c2ccc(OC)c(OC)c2)cc1', -44.5),
  ('O=C(Nc1ccc2c(c1)Cc1ccccc1-2)C(Cl)Cl', 14),
  ('CN(C)c1ccc(C2(c3ccc(N(C)C)cc3)NNC(=O)c3cc(N(C)C)ccc32)cc1', 1.8),
  ('COc1ccc(C2(C)OCCCC2([NH-])C[NH-])cc1.[Cl][Pt+2][Cl] (centres undefined)', 9.45),
  ('CC(C)c1ccc([N+](=O)[O-])cc1', 16.9),
  ('NCCNc1ncnc2ccc(Cl)cc12', 5.4),
  ('NC(=S)c1ccccn1', 26.9),
  ('CC(=O)c1cc([N+](=O)[O-])c(O)cc1O', 41),
  ('O=C1NC(=S)S/C1=C\c1ccncc1', -19.1);

Tell me the measured growth inhibition of C=C1C2CC3CCC2C(OC(=O)c2ccccc2C(=O)O)C13 (centres undefined) , please. -19.3

Please give the result for C/C(CC(O)(C(F)(F)F)C(F)(F)F)=N\N too. -23.4

Please give the result for COC(=O)[C@@]1(NC(=O)C(CC(=O)OC(C)(C)C)NC(=O)OC(C)(C)C)C[C@H]1C (some centres undefined) too. -14

---

Assay: NCI Yeast Anticancer Drug Screen. Data for the mlh1 rad18 strain (AID 175)
Conditions: S. cerevisiae mlh1 rad18 strain growth inhibition; at 50.0 µM; active compounds read high
Protocol: Growth inhibition of yeast strains with defined genetic alterations is measured as a screen for potential anti-cancer activity. Selected strains with alterations in DNA damage repair or cell cycle control were exposed to compounds and growth inhibition was measured relative to vehicle treated controls. The strain used in this assay is mlh1 rad18
This is part of a sample that, as a whole, favours compounds with a hit. Of some 79,000 tested, about 15% had one in any assay.
Assay Readout: growth inhibition (%)
The reply should be a number in %, with the unit left off.

See these solved cases before continuing.
INSERT INTO results (compound, assay_readout, numeric_value) VALUES
  ('Cc1nc([N+](=O)[O-])cn1CC(Cl)Cn1cc([N+](=O)[O-])nc1C', 'growth inhibition', 14.2),
  ('COc1cccc(Nc2nc(N)nc(N)c2N)c1', 'growth inhibition', 14),
  ('C=CCNC(=O)C[n+]1cccc(C(=O)Nc2ccccc2)c1', 'growth inhibition', -0.95),
  ('CC(C)(C)C(=O)/C=C(\OB(F)F)C(C)(C)C', 'growth inhibition', 5.25),
  ('CC(C)SCCO', 'growth inhibition', -13.4);

Tell me the measured growth inhibition of Cc1nc(C(F)(F)F)cc(=O)[nH]1 , please. 51

Please give the result for Nc1nc(N)c2nn(-c3ccc(C(=O)O)cc3)nc2n1 too. 6.05

Please give the result for O=C(NCCN1CCCCC1)c1ccc(Br)cc1 too. -47.1

Please give the result for Cc1ccc(NC(=O)CC(=O)n2nc(-c3ccccc3)c(N=Nc3ccc(Cl)cc3)c2-c2ccccc2)cc1 too. 37.7

Please give the result for N#CC(C(=O)O)C1(C(C#N)C(=O)O)CCN(Cc2ccccc2)CC1 (stereo unspecified) too. -10.1

Please give the result for CCc1cnc(N)nc1N too. 0.65

Please give the result for O=C(O)C1CCCCC1C(=O)Nc1cccc2ccccc12 (stereo unspecified) too. -39.5

Please give the result for COC(=O)C1(CC(=O)C(c2ccccc2)c2ccccc2)NC(=S)NC(=O)C1C#N (stereo unspecified) too. -8.9

Please give the result for O=C1NC(=O)c2c1c1cnn(-c3ccccc3)c1n1cccc21 too. 17.7

---

experiment: NCI Yeast Anticancer Drug Screen. Data for the bub3 strain (AID 167); details: S. cerevisiae bub3 mutant strain, at 50.0 µM, active compounds read high
Compounds without any hit were thinned out: in the full panel of roughly 79,000, 15% have a hit.
Give Fulfilled when the value for growth inhibition is at least 20%. Give Not fulfilled when it is less.

Before answering, review these 5 worked examples.
INSERT INTO assay_data (compound, assigned_category) VALUES
  ('Cc1ccc(Cl)cc1NC(=O)Nc1ccc(Cl)c(Cl)c1', 'Not fulfilled'),
  ('COc1ccc(-c2nc(-c3cc4c(ccc5ccccc54)oc3=O)cs2)cc1', 'Not fulfilled'),
  ('COc1ccc(Nc2nc3c([nH]2)c(=O)n(C)c(=O)n3C)cc1', 'Not fulfilled'),
  ('CC(C)CCNCC(C)(C)OC(=O)c1ccc([N+](=O)[O-])cc1', 'Fulfilled'),
  ('Cn1ncc2c(NCc3ccccc3)nc(Cl)nc21', 'Not fulfilled');

Now take the following compound into account.
Dear colleague, could you confirm whether CCNC(=O)[B-][N+](C)(C)C has growth inhibition at or above 20%? Not fulfilled

---

experiment: NCI Yeast Anticancer Drug Screen. Data for the rad50 strain (AID 155);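 also: 0% = growth of vehicle-only cultures of the same strain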; conditions: S. cerevisiae rad50 strain growth inhibition; at 50.0 µM; active compounds read high
The panel holds about 79,000 compounds, 15% with a hit somewhere; the sample as a whole holds those more often. The source made the active and inactive calls. No stated cut-off is given here; in the data, active means growth inhibition above about 70%; inactive means the rest.
Assay Readout: growth inhibition

See these solved cases before continuing.
INSERT INTO assay_data (compound, result) VALUES
  ('c1ccc(/N=C2\c3ccccc3CN2c2ccccn2)nc1', '-21.9% (inactive)'),
  ('COc1cccc2c1CCC(=O)C2', '-31.7% (inactive)'),
  ('O=C(NCCCc1ccccc1)Nc1ccccc1', '16.4% (inactive)'),
  ('O=C1c2c(Cl)cccc2C(c2ccccc2)c2cccc(Cl)c21', '29% (inactive)'),
  ('COC(=O)c1ccccc1NC(=O)Nc1cccc(Cl)c1C', '13.8% (inactive)'),
  ('CCOC(=O)c1ccc2c(c1)CCC(C)(C)O2', '-5.55% (inactive)'),
  ('Cc1c(-c2ccccc2)cc(O)c2nc3ccccc3n12', '-31.2% (inactive)'),
  ('O=C(C(c1ccccc1)C(F)(F)F)N1CCCC1 (stereo not given)', '7.4% (inactive)'),
  ('FC(F)(F)c1nn2c(c(-c3ccccc3)c(-c3ccccc3)c3ccccc32)c1C(F)(F)F', '32.9% (inactive)'),
  ('CCCNC(=S)N=Nc1c(O)[nH]c2ccccc12', '-46.2% (inactive)');

Tell me the measured growth inhibition of O=c1c2c(oc(=Nc3ccccc3)n1-c1ccccc1)CC1(CCCCC1)C2 , please. 5.45% (inactive)

Please give the result for CC(C)C1CCC2(C)C(CCC3C4(C)CCCC32OC4)C1 (stereo not given) too. -20.5% (inactive)

Please give the result for S=c1c2ccccc2sn1-c1ccccc1 too. 26.2% (inactive)

Please give the result for CC(=O)N1CC(C)CC2OC3(CCC4C5CCC6CC(=O)CCC6(C)C5C(=O)C4C3C)C(C)C21 (stereo not given) too. -0.65% (inactive)

Please give the result for NC1C=NNC1=O (stereo not given) too. -11.1% (inactive)

Please give the result for Cn1cnc(N)c1C(N)=S too. 4.65% (inactive)

Please give the result for CN(C)c1nc(Cl)c2c(-c3ccccc3)c(-c3ccccc3)oc2n1 too. -0.6% (inactive)

Please give the result for CCCC(/C=N/Nc1ccc([N+](=O)[O-])cc1[N+](=O)[O-])=C\c1ccccc1 too. -12.1% (inactive)

Please give the result for CC1(C)CC23C4COC(=O)C2CCC1C3CC4=O (stereo not given) too. -7.25% (inactive)

Please give the result for Cc1n(CC(=O)c2ccccc2)nc2sc(N)n[n+]12 too. -50% (inactive)
